# Test system: OleT
# Test: Decarboxylation of FAs C22 to C4 employing the FDH-CamAB-OleT redox-cascade
# Type: biochemical
# Experimental parameters: 25 °C, 24 h, 10 mM substrate
Measured property: Conversion
Answer format: value, then unit.

The examples below pair each entry with its known result.
> print(dat)
                smiles.str  system  measured.property  value.observed
1              CCCCCC(=O)O    OleT         Conversion             12%
2            CCCCCCCC(=O)O    OleT         Conversion            3.6%
3  CCCCCCCCCCCCCCCCCC(=O)O    OleT         Conversion             39%

With those in mind, consider the next compound.
Ask: Find the recorded Conversion belonging to CCCCCCCCCCCC(=O)O and report it.
Result: 3%
